Molecular target: human ACC2 (Homo sapiens (Human))
Sequence (O00763 129-2458): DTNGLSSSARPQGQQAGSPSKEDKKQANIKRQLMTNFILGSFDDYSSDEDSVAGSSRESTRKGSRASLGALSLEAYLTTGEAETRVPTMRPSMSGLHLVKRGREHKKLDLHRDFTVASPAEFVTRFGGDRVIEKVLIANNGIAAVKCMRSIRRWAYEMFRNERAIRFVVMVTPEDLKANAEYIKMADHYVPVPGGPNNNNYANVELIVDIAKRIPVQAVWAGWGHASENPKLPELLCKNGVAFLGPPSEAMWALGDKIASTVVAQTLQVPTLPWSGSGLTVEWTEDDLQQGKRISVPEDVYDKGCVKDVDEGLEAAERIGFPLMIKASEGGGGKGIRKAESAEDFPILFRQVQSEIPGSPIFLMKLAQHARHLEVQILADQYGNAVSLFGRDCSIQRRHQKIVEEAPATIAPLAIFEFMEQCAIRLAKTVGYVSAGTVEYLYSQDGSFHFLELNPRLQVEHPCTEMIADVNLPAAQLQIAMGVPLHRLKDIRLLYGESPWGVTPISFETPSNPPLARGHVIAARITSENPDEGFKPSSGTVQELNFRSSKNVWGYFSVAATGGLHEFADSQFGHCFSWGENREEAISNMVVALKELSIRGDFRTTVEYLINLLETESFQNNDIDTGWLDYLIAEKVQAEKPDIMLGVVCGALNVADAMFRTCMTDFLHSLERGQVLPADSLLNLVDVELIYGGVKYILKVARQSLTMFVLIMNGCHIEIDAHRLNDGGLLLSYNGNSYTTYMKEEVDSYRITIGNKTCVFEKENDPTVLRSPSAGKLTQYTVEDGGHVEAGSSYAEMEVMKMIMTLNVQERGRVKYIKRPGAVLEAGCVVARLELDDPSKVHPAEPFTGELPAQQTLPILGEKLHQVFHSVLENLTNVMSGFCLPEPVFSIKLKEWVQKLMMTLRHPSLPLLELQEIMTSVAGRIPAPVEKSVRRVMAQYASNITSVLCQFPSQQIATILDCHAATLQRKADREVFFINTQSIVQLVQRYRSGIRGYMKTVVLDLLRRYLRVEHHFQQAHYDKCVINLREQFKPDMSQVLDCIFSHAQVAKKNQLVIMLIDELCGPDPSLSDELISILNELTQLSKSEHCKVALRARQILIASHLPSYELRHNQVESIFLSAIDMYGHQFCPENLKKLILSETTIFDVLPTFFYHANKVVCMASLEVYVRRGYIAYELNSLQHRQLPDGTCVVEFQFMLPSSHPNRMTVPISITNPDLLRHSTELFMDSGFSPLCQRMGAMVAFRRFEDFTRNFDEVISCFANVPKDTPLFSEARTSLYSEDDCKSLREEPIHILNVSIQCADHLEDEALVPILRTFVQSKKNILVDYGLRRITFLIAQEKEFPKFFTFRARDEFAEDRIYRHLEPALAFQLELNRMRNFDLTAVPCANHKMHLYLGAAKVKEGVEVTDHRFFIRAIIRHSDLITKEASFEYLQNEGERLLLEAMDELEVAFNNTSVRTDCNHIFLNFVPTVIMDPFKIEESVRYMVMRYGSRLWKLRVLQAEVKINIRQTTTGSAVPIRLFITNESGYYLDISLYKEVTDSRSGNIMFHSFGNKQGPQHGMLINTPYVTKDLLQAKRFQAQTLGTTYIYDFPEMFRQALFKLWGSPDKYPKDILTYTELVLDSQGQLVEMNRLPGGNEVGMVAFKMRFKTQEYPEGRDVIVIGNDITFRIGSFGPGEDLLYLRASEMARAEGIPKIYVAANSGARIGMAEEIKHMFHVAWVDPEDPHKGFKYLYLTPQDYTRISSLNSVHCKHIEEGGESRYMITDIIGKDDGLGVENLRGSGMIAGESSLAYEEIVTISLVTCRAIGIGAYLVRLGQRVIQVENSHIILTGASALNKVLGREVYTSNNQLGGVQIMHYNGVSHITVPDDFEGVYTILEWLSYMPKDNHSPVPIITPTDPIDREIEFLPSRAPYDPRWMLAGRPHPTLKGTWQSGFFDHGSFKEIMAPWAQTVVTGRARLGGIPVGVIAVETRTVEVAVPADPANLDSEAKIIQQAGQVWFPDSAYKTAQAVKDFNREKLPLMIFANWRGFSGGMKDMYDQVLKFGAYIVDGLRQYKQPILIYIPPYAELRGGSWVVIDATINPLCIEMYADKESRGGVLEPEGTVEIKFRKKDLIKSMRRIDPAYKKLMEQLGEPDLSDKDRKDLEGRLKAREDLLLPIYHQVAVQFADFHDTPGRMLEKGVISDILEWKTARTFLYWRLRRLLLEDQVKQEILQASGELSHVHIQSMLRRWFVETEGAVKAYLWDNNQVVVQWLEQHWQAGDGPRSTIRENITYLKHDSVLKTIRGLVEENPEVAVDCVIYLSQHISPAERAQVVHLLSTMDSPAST
Field 'label' (enum: rule met / rule not met). Set to rule met when IC50 is strictly under 60 nM; else rule not met.

C[C@H](NC(=O)C(F)(F)F)c1ccc(CN2CCc3cc(OCC4CC4(F)F)ccc3C2)cc1 (stereo partly shown) [Example 4.002] :: rule met
C[C@H](NC(=O)N(C)C)c1ccc(CN2CCc3cc(OCC4CC4(F)F)ccc3C2)cc1 (stereo partly shown) [Example 5.003] :: rule met

Input: Record C[C@H](NC(=O)C1CCC(=O)N1)c1ccc(CN2CCc3cc(OC[C@@H]4CC4(F)F)ccc3C2)cc1 (stereo partly shown) [Example 2.029] : is its IC50 strictly below 60 nM?
Output: rule not met

Input: Decide: IC50 of C[C@H](NC(=O)CC#N)c1ccc(CN2CCc3cc(OCC4CC4(F)F)ccc3C2)cc1 (stereo partly shown) [Example 3.001] strictly below 60 nM?
Output: rule met

Input: Please state whether IC50 is below 60 nM for C[C@H](NC(=O)c1cn[nH]c1)c1ccc(CN2CCc3cc(OCC4CC4(F)F)ccc3C2)cc1 (stereo partly shown) [Example 3.010]
Output: rule met

Input: Below 60 nM on IC50? Entry COc1cccc2c1CCN(Cc1ccc([C@H](C)NC(C)=O)cc1)C2 [Example 7.001]
Output: rule not met

Input: Is IC50 of CC(=O)Nc1nc(C)c(C(=O)N[C@@H](C)c2ccc(CN3Cc4ccc(OCC5CC5(F)F)cc4C(O)C3)cc2)s1 (stereo partly shown) [Example 2.035] strictly below 60 nM?
Output: rule not met

Input: Does the reported IC50 of CC(=O)Nc1nc(C)c(C(=O)N[C@@H](C)c2ccc(CN3CCc4cc(OCC5CC5(F)F)ccc4C3)cc2)s1 (stereo partly shown) [Example 2.020] stay below 60 nM?
Output: rule met

Input: Field: below-cutoff. Rule: recorded IC50 strictly less than 60 nM. Subject: COC(=O)N[C@@H](C)c1ccc(CN2Cc3ccc(OCC4CC4)cc3C(O)C2)cc1 (stereo partly shown) [Example 5.008]
Output: rule not met

Input: Threshold test, IC50 < 60 nM: CC(=O)NC(C)c1ccc(CN2CCc3c(ccc(OCCCF)c3Cl)C2)cc1 (stereo not shown) [Example 1.039]
Output: rule met

Input: Hello, is IC50 of the following compound strictly smaller than 60 nM? CC(=O)NC(C)c1ccc(CN2CCc3c(ccc(OCC4CC4(F)F)c3Br)C2)cc1 (stereo not shown) [Example 1.031]
Output: rule not met

###

Target: human ACC2 (Homo sapiens (Human))
Class (required): determined from IC50; valid ranges are one (below 50 nM), two (50 nM to below 200 nM), three (200 nM or more)

Example entries begin here.
C[C@H](NC(=O)c1cnn(C)c1)c1ccc(CN2CCc3cc(OCC4CC4(F)F)ccc3C2)cc1 (stereo partly shown) :: one
COc1c(OCC2CC2(F)F)ccc2c1CCN(Cc1ccc([C@H](C)NC(C)=O)cc1)C2C (stereo partly shown) :: three
C[C@H](NC(=O)CO)c1ccc(CN2Cc3ccc(OCC4CC4)cc3C(F)C2)cc1 (stereo partly shown) :: one
CCOc1ccc2c(c1OC)CCN(Cc1ccc([C@H](C)NC(C)=O)cc1)C2C (stereo partly shown) :: three
C[C@H](NC(=O)C1(C#N)CC1)c1ccc(CN2Cc3ccc(OCC4CC4(F)F)cc3C(F)C2)cc1 (stereo partly shown) :: one
CCC(=O)Nc1nc(C)c(C(=O)N[C@@H](C)c2ccc(CN3Cc4ccc(OCC5CC5)cc4C(F)C3)cc2)s1 (stereo partly shown) :: one
COc1cccc2c1CCN(Cc1ccc([C@H](C)NC(=O)C3CC3)cc1)C2 :: three
CC(=O)NC(C)c1ccc(CN2CCc3c(ccc(OCCC(F)(F)F)c3Cl)C2)cc1 (stereo not shown) :: two

Input: Bin this entry: C[C@H](NC(=O)c1cnco1)c1ccc(CN2CCc3cc(OCC4CC4(F)F)ccc3C2)cc1 (stereo partly shown)
Output: two

Input: Exercise: read the entry "C[C@H](NC(=O)CC#N)c1ccc(CN2CC(=O)c3cc(OCC4CC4)ccc3C2)cc1" and state which class it falls under.
Output: three

Input: Place this compound in its band: C[C@H](NC(=O)c1ncc[nH]1)c1ccc(CN2Cc3ccc(OCC4CC4)cc3C(F)C2)cc1 (stereo partly shown)
Output: three

Input: Which class holds "COc1c(OCCC2CC2)ccc2c1CCN(Cc1ccc([C@H](C)NC(=O)C3CC3)cc1)C2" ?
Output: two

Input: Form field 'band' for CC(=O)NC(C)c1ccc(CN2CCc3c(cccc3OC(C)C)C2)cc1 (stereo not shown)
Output: three

Input: Just checking, what class would you give CC(=O)Nc1nc(C)c(C(=O)N[C@@H](C)c2ccc(CN3Cc4ccc(OCC5CC5)cc4C(F)C3)cc2)o1 (stereo partly shown) here?
Output: three

Input: Pick a category. Item: "C[C@H](NC(=O)C1CC1)c1ccc(CN2CCc3cc(OCC(F)F)ccc3C2)cc1"
Output: two

Input: Exam item: assign COC(=O)C1c2ccc(OCC3CC3)cc2CCN1Cc1ccc([C@H](C)NC(C)=O)cc1 (stereo partly shown) to the correct category.
Output: two

Input: Any idea which band CC(=O)NC(C)c1ccc(CN2CCc3cc(OCCC4CC4)ccc3C2)cc1 (stereo not shown) is in?
Output: two

Input: Class for CCC(=O)N[C@@H](C)c1ccc(CN2CCc3cc(OCC4CC4(F)F)ccc3C2)cc1 (stereo partly shown) ?
Output: one

Input: Hey, which category is COc1ccc2c(c1Cl)CCN(Cc1ccc(C(C)NC(C)=O)cc1)C2 (stereo not shown) in, do you know?
Output: three

Input: Hi there! Could you help me figure out the category for "COc1c(OCC2CC2)ccc2c1CCN(Cc1ccc([C@H](C)NC(=O)C3CC3)cc1)C2" please?
Output: two

Input: Bin this entry: "COc1cccc2c1CCN(Cc1ccc([C@H](C)NC(=O)c3cncs3)cc1)C2"
Output: two

###

Reported pIC50, human ACC2 (Homo sapiens (Human)).
Give bare numbers, as −log10 of the molar value.

Consider the following illustrative entries.
CCCOc1ccc2c(c1OC)CCN(Cc1ccc([C@H](C)NC(C)=O)cc1)C2 [Example 1.074] :: 7.10
CC(=O)N[C@@H](C)c1ccc(CN2CCc3c(ccc(Cl)c3Cl)C2)cc1 [Example 1.078] :: 7.17

Now take the following compound into account.
Input: What value of pIC50 has been reported for the following compound? C[C@H](NC(=O)Cc1cncnc1)c1ccc(CN2Cc3ccc(OCC4CC4(F)F)cc3C(F)C2)cc1 (stereo partly drawn) [Example 3.03]
Output: 7.02

###

Target: UniProtKB O00763
I'd be grateful if you could share measured IC50 for these entries.

Below, 3 molecules whose answers are already recorded.
CCCOc1ccc2c(c1)CCN(Cc1ccc(C(C)NC(C)=O)cc1)C2 (centres unmarked) [Example 1.017] :: 60 nM
C[C@H](NC(=O)[C@@H](C)O)c1ccc(CN2Cc3ccc(OCC4CC4)cc3C(F)C2)cc1 (some centres unmarked) [Example 3.061] :: 90 nM
C[C@H](NC(=O)C1CC1)c1ccc(CN2CC(=O)c3cc(OCC4CC4(F)F)ccc3C2)cc1 (some centres unmarked) [Example 7.006] :: 551 nM

Answer for every listed entry: what is its IC50? The entries follow.
1. C[C@H](NC(=O)c1cn[nH]c1)c1ccc(CN2Cc3ccc(OCC4CC4)cc3C(O)C2)cc1 (some centres unmarked) [Example 3.063]
2. C[C@H](NC(=O)C1(C(F)(F)F)CC1)c1ccc(CN2CCc3cc(OCC4CC4(F)F)ccc3C2)cc1 (some centres unmarked) [Example 3.005]

Output:
1: 266 nM; 2: 59 nM
